Listing: FACS-Seq fitted mean (log10) of selected variants
B1: library; a variant is named by its letters at N, in order (parent)
chain: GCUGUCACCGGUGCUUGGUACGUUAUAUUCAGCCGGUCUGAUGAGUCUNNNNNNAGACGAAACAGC

Variants of: B1
Test: FACS-Seq fitted mean relative fluorescence mCherry/BFP with ligand (log10 relative fluorescence); HEK293T overexpressing SLC46A1; ligand concentration (+) FACS-Seq: 6 mM; higher = higher reporter protein expression
Conditions: with (6R,S)-folinic acid; ligand present: yes
ASSAY ENDPOINT: FACS-Seq fitted mean (log10)

INSERT INTO results (mutations, endpoint_value) VALUES
  ('AUAUAC', 0.279),
  ('UGGACG', 0.472),
  ('GGGUCG', 0.432),
  ('UAAACG', 0.717),
  ('UAGAGA', 0.551),
  ('UCGCAU', 0.661),
  ('AACAGU', 0.0957),
  ('GUGAGG', 0.497),
  ('CAAGAA', 0.427),
  ('AAAUGC', 0.713),
  ('AUCGAC', 0.0476),
  ('GAACAA', 0.571),
  ('AAACAG', 0.296),
  ('CAGCAU', 0.546),
  ('AAUAAA', -0.301),
  ('AGUUGC', 0.705),
  ('AGGAGA', 0.172),
  ('UUACUG', -0.804),
  ('AAGGUG', 0.597),
  ('UAAUAU', 0.297),
  ('AUAACU', -0.619),
  ('GUCGCA', 0.745),
  ('GAAAGA', 0.607),
  ('CAAACU', 0.667),
  ('CAAUAG', 0.641),
  ('AACAUA', 0.324),
  ('AAUGGG', 0.233),
  ('GAGCUA', 0.415),
  ('UAUCAG', 0.328),
  ('UAAAGC', 0.319),
  ('GACUCC', 0.583),
  ('UUUCCG', 0.493),
  ('UAGGUA', 0.0784),
  ('GUCGCC', 0.25),
  ('AGCAGA', -0.229),
  ('AGCGGU', 0.522),
  ('UGAGAA', 0.533),
  ('UGAUAC', 0.128),
  ('UCAUUG', 0.304),
  ('CUAUUU', -0.0506),
  ('UCUAAA', 0.483),
  ('GCGGAG', 0.18),
  ('UAGUGG', 0.623),
  ('GGCUUG', 0.292),
  ('CAGACC', 0.261),
  ('AUGGAG', 0.622),
  ('UACCGA', 0.441),
  ('GACCAA', 0.42),
  ('AUUGAG', 0.969),
  ('ACUCAU', 0.187),
  ('AGGAGG', 0.614),
  ('AACAGA', 0.425),
  ('GUGUAG', 0.514),
  ('UAUGGA', 0.472),
  ('AACGAG', 0.501),
  ('UAGGAA', 0.822),
  ('GUUUUA', 0.461),
  ('GCAUAG', 0.466),
  ('AAAACG', 0.582),
  ('UGUAAG', 0.624),
  ('CCUGCU', -0.135),
  ('AUUGUG', 0.524),
  ('UGACGA', 0.493),
  ('UGUCGG', 0.166),
  ('AAGGAG', 0.263),
  ('GAUAAA', 0.397),
  ('CAGUUA', 0.573),
  ('UGUUUU', 0.546),
  ('CAUUAC', 0.484),
  ('GAAGAG', 0.356),
  ('AGGUGU', 0.266),
  ('CAAUGA', 0.267),
  ('UGCUCG', 0.49),
  ('CUAAAG', -0.0285),
  ('UAAAUG', 0.685),
  ('GACCCU', -0.257),
  ('GCCAAA', 0.495),
  ('UCCACG', 0.23),
  ('UGAUGA', 0.525),
  ('GGGACA', 0.248),
  ('AGCCUG', 0.405),
  ('UUCCAA', 0.213),
  ('UUAAUG', 0.461);

Each recorded value in this set is attributed to the supplement of paper PMC6757056.
